Hey, just so you know, these numbers are from BindingDB's records for doi:10.1021/jm990590f.

- Study target: Corticotropin-releasing factor receptor 1 (Rattus norvegicus)
- Procedure details: Compound was tested for the inhibition of binding of the radioligand, [125 I-Tyr0]-CRF to rat cerebral cortex membrane
Measured attribute: pKi
Please express pKi as -log10 of the molar concentration.

"CCN(c1nc(C)cc(N2CCOCC2)n1)c1ccc(C(C)C)cc1Br" yielded pKi of 7.20

###

- Study target: Corticotropin-releasing factor receptor 1 (Rattus norvegicus)
- Procedure details: Inhibition of corticotropin releasing factor receptor mediated increase in cAMP level using rat cortical homogenates in vitro.
Measured attribute: IC50
Report the figure along with its unit, number first.

compound "COCC(COC)n1nnc2c(Nc3c(C)cc(C)cc3Cl)nc(C)cc21" , IC50 observed: 0.079 µM
